# TARGET_SYSTEM: T1, hVISTA-ECD 6-His tag (human, UniProt Q9H7M9 33-193)
# T1 construct: also called monovalent hVISTA-ECD; human VISTA
# T1 sequence (Q9H7M9 other isoform, or with tags, fused parts or gaps limits assumed): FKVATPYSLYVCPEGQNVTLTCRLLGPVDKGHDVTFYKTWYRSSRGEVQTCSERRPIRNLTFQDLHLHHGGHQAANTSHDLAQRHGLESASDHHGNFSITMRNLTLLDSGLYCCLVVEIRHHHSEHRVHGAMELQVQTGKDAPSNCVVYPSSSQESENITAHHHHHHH
# EXPERIMENT_SUMMARY: SPR 37 C, Ab on Protein A, pH 6.0
Kind request: treat 500000 M⁻¹ s⁻¹ as inclusive, so kon at 500000 M⁻¹ s⁻¹ or higher is t, anything lower is f.

• P1-077859 (P1-068744 H50I E100S) (antibody, V domains shown) VH: QVQLVESGGGVVQPGRSLRLSCAASGFTFSEYAMHWVRQAPGKGLEWVAIIWYDGSNKYEADSVKGRFTISRDNSKNTLYLQMNSLRAEDTAVYYCARDSGFYSSYYFDEWGQGTLVTVSS VL: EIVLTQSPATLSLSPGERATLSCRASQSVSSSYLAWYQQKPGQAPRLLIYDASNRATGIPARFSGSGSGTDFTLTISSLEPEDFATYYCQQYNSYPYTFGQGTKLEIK = t
• P1-077853 (P1-068744 E31S E102Y) (antibody, V domains shown) VH: QVQLVESGGGVVQPGRSLRLSCAASGFTFSSYAMHWVRQAPGKGLEWVAHIWYDGSNKYEADSVKGRFTISRDNSKNTLYLQMNSLRAEDTAVYYCARDSGFYESYYFDYWGQGTLVTVSS VL: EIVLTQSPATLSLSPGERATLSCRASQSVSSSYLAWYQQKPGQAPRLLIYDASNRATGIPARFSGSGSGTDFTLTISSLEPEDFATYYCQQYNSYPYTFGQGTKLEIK = f
• P1-077835 (P1-068744 E31S) (antibody, V domains shown) VH: QVQLVESGGGVVQPGRSLRLSCAASGFTFSSYAMHWVRQAPGKGLEWVAHIWYDGSNKYEADSVKGRFTISRDNSKNTLYLQMNSLRAEDTAVYYCARDSGFYESYYFDEWGQGTLVTVSS VL: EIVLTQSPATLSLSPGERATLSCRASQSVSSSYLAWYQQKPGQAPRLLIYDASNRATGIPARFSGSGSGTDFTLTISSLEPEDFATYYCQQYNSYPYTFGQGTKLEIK = f
• P1-068744 (antibody, human IgG1, kappa, V domains shown, also called P1-068744-7) VH: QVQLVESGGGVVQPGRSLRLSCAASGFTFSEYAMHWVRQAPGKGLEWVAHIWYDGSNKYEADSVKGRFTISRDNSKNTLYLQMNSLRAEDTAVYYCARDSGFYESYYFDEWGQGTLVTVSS VL: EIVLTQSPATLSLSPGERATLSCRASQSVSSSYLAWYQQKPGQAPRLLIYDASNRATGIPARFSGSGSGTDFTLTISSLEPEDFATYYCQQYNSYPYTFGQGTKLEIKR = f

Reference source: patent US20230192860A1
